Reported Vd values are given for each entry in this list.
Experiment Summary: Pharmacokinetic evaluation with intravenous or oral administration
Assay type: in vivo
Condition Label: rat, plasma; rats, intravenous administration, 1 mg/kg; read-out: Vss

Compound: Cc1ccc(-n2nccn2)c(C(=O)N2CCN(c3nc4ccc(F)cc4c(=O)[nH]3)CCC2C)c1 (stereo not drawn)
Vd [L/kg]: 0.66
//
Compound: O=C(c1ccccc1-n1nccn1)N1CCCN(c2nc3ccc(Cl)cc3c(=O)[nH]2)CC1
Vd [L/kg]: 1.33
//
Compound: Cc1ccc(-n2nccn2)c(C(=O)N2CCN(c3nc4ccc(Cl)cc4c(=O)[nH]3)CCC2C)c1 (stereo not drawn)
Vd [L/kg]: 0.292

* * *

Experiment Summary: Pharmacokinetic evaluation with intravenous or oral administration
Assay type: in vivo
Condition Label: rat, plasma; rats, intravenous administration, 1 mg/kg
Let's look at some molecules and their measured Cmax.

Molecule: O=C(c1ccccc1-n1nccn1)N1CCCN(c2nc3ccc(Cl)cc3c(=O)[nH]2)CC1
Cmax, µg/mL: 4.08

Molecule: Cc1ccc(-n2nccn2)c(C(=O)N2CCN(c3nc4ccc(F)cc4c(=O)[nH]3)CCC2C)c1 (stereo not drawn)
Cmax, µg/mL: 1.4

Molecule: Cc1ccc(-n2nccn2)c(C(=O)N2CCN(c3nc4ccc(Cl)cc4c(=O)[nH]3)CCC2C)c1 (stereo not drawn)
Cmax, µg/mL: 3.66

* * *

The following compounds are listed with their measured Cmax values.
Experiment Summary: Pharmacokinetic evaluation with intravenous or oral administration
Type: in vivo
Condition Label: rat, plasma; rats, oral administration, 5 mg/kg
Experimental: Pharmacokinetics of the compound of the present invention in rats, dogs or monkeys was evaluated in the present invention. The compounds of this invention were administered with a saline solution of 5% DMSO+5% Kolliphor HS 15+2% (2% HCl)+88% Saline or 10% DMSO+10% Kolliphor HS 15+80% physiological. […]
Quantity Name: Cmax

Compound: O=C(c1ccccc1-n1nccn1)N1CCCN(c2nc3ccc(Cl)cc3c(=O)[nH]2)CC1 [Example 7]
Readout Value: 13800 ng/mL
--
Compound: Cc1ccc(-n2nccn2)c(C(=O)N2CCN(c3nc4ccc(Cl)cc4c(=O)[nH]3)CCC2C)c1 (centres unmarked) [Example 6]
Readout Value: 5680 ng/mL

* * *

System: humanized OX1 receptor (Homo sapiens (Human), UniProt O43613)
Sequence (O43613 whole entry): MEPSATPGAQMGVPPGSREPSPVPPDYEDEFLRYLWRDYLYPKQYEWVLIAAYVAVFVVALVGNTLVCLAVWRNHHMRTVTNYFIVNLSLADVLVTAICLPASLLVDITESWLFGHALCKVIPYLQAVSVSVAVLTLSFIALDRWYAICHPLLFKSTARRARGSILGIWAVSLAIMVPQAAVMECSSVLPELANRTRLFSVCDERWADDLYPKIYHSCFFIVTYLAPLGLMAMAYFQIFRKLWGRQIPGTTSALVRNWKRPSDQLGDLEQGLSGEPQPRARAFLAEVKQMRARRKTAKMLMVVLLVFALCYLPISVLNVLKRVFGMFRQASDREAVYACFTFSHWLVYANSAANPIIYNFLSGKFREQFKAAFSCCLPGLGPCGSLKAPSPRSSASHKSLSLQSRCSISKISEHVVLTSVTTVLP
Experiment Summary: Antagonism of humanized OX1 receptor assay (fluorescence detection of free cytoplasmic calcium, 3 nM orexin A)
Condition Label: humanized OX1 receptor transfected CHO cells

Molecule: Cc1ccc(-n2nccn2)c(C(=O)N2CCN(c3nc4ccc(F)cc4c(=O)[nH]3)CCC2C)c1 (stereo not shown) [Example 2]
System: humanized OX1 receptor (Homo sapiens (Human), UniProt O43613)
Readout Units: nM
IC50: 543
--
Molecule: Cc1ccc(-n2nccn2)c(C(=O)N2CCCN(c3nc4ccc(Cl)cc4c(=O)[nH]3)CC2)c1 [Example 5]
System: humanized OX1 receptor (Homo sapiens (Human), UniProt O43613)
Readout Units: nM
IC50: 276
--
Molecule: Cc1ccc(-n2nccn2)c(C(=O)N2CCCN(c3nc4ccc(F)cc4c(=O)[nH]3)CC2)c1 [Example 1]
System: humanized OX1 receptor (Homo sapiens (Human), UniProt O43613)
Readout Units: nM
IC50: 322
--
Molecule: Cc1ccc(-n2nccn2)c(C(=O)N2CCN(c3nc4ccc(Cl)cc4c(=O)[nH]3)CCC2C)c1 (stereo not shown) [Example 6]
System: humanized OX1 receptor (Homo sapiens (Human), UniProt O43613)
Readout Units: nM
IC50: 367
